The values you see were collected from ChEMBL document CHEMBL3885881.

organism: Rattus norvegicus; test: DrugMatrix - Regimen: Daily Repeat; format: toxicity, organism-based, Sprague-Dawley; design: regimen Daily Repeat, gender Male, age 6-8 weeks; details: in vivo, po, 0 mg/kg, 72 h, tissue Blood, route oral GAVAGE, dose level Control, time 3 day, […]
Recorded metric: HEMOGLOBIN (G/DL)
Reply with just the number (in G/DL).

Form field: reported HEMOGLOBIN of S=C=Nc1cccc2ccccc12 [1-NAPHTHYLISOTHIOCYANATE]
12.77

Form field: reported HEMOGLOBIN of Cc1cccc(Nc2ccncc2S(=O)(=O)NC(=O)NC(C)C)c1 [TORSEMIDE]
13.42

Form field: reported HEMOGLOBIN of CCOC(=O)C(C)(C)Oc1ccc(Cl)cc1 [CLOFIBRATE]
12.95

Form field: reported HEMOGLOBIN of CC/C(=C(/CC)c1ccc(O)cc1)c1ccc(O)cc1 [DIETHYLSTILBESTROL]
12.87

Form field: reported HEMOGLOBIN of CC(C)(Oc1ccc(C2CCCc3ccccc32)cc1)C(=O)O (centres undefined) [NAFENOPIN]
12.27

Form field: reported HEMOGLOBIN of CCCCCCCCc1ccc(O)cc1 [4-OCTYLPHENOL]
14.03

Form field: reported HEMOGLOBIN of COCCOC(=O)C1=C(C)NC(C)=C(C(=O)OC(C)C)C1c1cccc([N+](=O)[O-])c1 (centres undefined) [NIMODIPINE]
13.27

Form field: reported HEMOGLOBIN of Clc1ccc(Cl)cc1 [1,4-DICHLOROBENZENE]
14.53

Form field: reported HEMOGLOBIN of COc1ccc2[nH]c([S+]([O-])Cc3ncc(C)c(OC)c3C)nc2c1 (centres undefined) [OMEPRAZOLE]
13.57
